B1: CPEB3 Ribozyme (parent)
chain: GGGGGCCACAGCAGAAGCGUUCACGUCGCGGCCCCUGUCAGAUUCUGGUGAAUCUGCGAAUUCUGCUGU

variants of: B1; experiment: self-cleavage, relative activity (ratio to wild type); higher = more cleavage; co-transcriptional
Attribute Measured: self-cleavage
Give a plain numeric answer without units written out.

Using the record for GGGGGCCACAGCAGAAGGGUUAACGUCGCGGCCCCUGUCAGAUUCUGGUGAAUCUGCGAAUUCUGCUGU [C18G C22A] , report its self-cleavage.
0.179

Bench note: what self-cleavage did UGGGGCCACAGCAGAAGCGUUCACGUCACGGCCCCUGUCAGAUUCUGGUGAAUCUGCGAAUUCUGCUGU [G1U G28A] show?
0.0369

Which self-cleavage value belongs to GGGGGCCACAGCAGAAGCGUUCACGUCGCGGCCCCAGUCAGAUUCUGGUGAUUCUGCGAAUUCUGCUGU [U36A A52U] ?
0.166

What measured self-cleavage goes with GGGGGCCACAGCAGAAGCGUUCACCUCGGGGCCCCUGUCAGAUUCUGGUGAAUCUGCGAAUUCUGCUGU [G25C C29G] ?
0.148

Quick one: self-cleavage for GGGGGCCGCAGCAGAAGCGUUCACGUCGCGGCCGCUGUCAGAUUCUGGUGAAUCUGCGAAUUCUGCUGU [A8G C34G] ?
0.665

Recorded self-cleavage for GGGGGCCACAGCAGAAGCGUUCACGUCGCGGCCCCUGUCAGUUUCUGGUGAAACUGCGAAUUCUGCUGU [A42U U53A] , please?
1.02

Request the reported self-cleavage associated with GGGGGCCACAGCAGAAGCGCUUACGUCGCGGCCCCUGUCAGAUUCUGGUGAAUCUGCGAAUUCUGCUGU [U20C C22U]
0.229

So what does the record say about self-cleavage for GGAGGCCACAGCAGAAGCGUUCACGUCGCGGCCCCUGUCAGAUCCUGGUGAAUCUGCGAAUUCUGCUGU [G3A U44C] ?
0.474

# self-cleavage lookup, item GGGGGCCACAGCAGAAGCGGUCACGUCGCGGCCUCUGUCAGAUUCUGGUGAAUCUGCGAAUUCUGCUGU [U20G C34U]
0.268

Request the reported self-cleavage associated with GGGGGCCACAGCAGAAGCGUUCACGUCGCGGCCCCUGUCAGCUUCUGGUGAAUCUGCCAAUUCUGCUGU [A42C G58C]
1.04

Please look up its self-cleavage: GGGGGCCACAGCAGAAGCGUUCACGUCGCGGCACCUGUCAUAUUCUGGUGAAUCUGCGAAUUCUGCUGU [C33A G41U]
0.562

Sample GGGGGCCACAGCAGAAGCGUUCACGACGCGGCCCCUGUCAGAUUCAGGUGAAUCUGCGAAUUCUGCUGU [U26A U46A] — what was its self-cleavage?
0.906

Field request: self-cleavage | item: GGGGGCCACAGCAGAAGCGGUCACGUCGCGGCCCCUGUCAGAUUCUGGUGAAUGUGCGAAUUCUGCUGU [U20G C54G]
0.118

What value of self-cleavage has been reported for the following variant? GGGGGCCACAGUAGAAGCCUUCACGUCGCGGCCCCUGUCAGAUUCUGGUGAAUCUGCGAAUUCUGCUGU [C12U G19C]
0.154

If you can, please state the reported self-cleavage value of GGGGGCCACAGGAGAAGCGUUCACGUCGCGGCCCCUGUCAGAUUCUGAUGAAUCUGCGAAUUCUGCUGU [C12G G48A] .
0.953

Please report the recorded self-cleavage for GGGGACCACAGCAGAAGCGUUCACGUCGCGGCCCCUGUCAGAUACUGGUGAAUCUGCGAAUUCUGCUGU [G5A U44A] .
0.655

What self-cleavage value was documented for this variant, GGGGGCCACAGCAGAAGCGUUCACGUCGCGGCCCCUGUCAGAUUCUAGUGAAUCUGCGAAUUCUGCUGG [G47A U69G] ?
1.05

Form field: reported self-cleavage of GGGGGCCACAGCAGAAGCGUUCACGUCGCGGCUCCUGUCAGAUUCUGGUCAAUCUGCGAAUUCUGCUGU [C33U G50C]
1

Please give the measured self-cleavage for this variant: GGGGGCCACAGCAGAGGCGUUCACGUCGCGGCCCCUGUCAGAUUCUGCUGAAUCUGCGAAUUCUGCUGU [A16G G48C]
0.892

Query: self-cleavage; subject: GGGGGCCACAACAGAAGCGUUCACUUCGCGGCCCCUGUCAGAUUCUGGUGAAUCUGCGAAUUCUGCUGU [G11A G25U]
0.176

Which self-cleavage value is on record for GGGGGCCACAGCAGAUGCGUUCACGUCGCCGCCCCUGUCAGAUUCUGGUGAAUCUGCGAAUUCUGCUGU [A16U G30C] ?
0.189

What does the data say about its self-cleavage? Entry: GGCGGCCACAGCAGAAGCGUUCACGUCGGGGCCCCUGUCAGAUUCUGGUGAAUCUGCGAAUUCUGCUGU [G3C C29G]
0.0545

Value lookup for self-cleavage; key = GGCGGCCACAGCAGGAGCGUUCACGUCGCGGCCCCUGUCAGAUUCUGGUGAAUCUGCGAAUUCUGCUGU [G3C A15G]
0.113

Which self-cleavage is reported for this variant? GGGGGCCACAGCAGAAGCGUUCACGUCGUGGCCCCUGUCACAUUCUGGUGAAUCUGCGAAUUCUGCUGU [C29U G41C]
0.173

# get_value(readout='self-cleavage', item= GGGGGCCACAGCAGAAGCGUUCACGUCGCGGCCCCUGUCAGAUUCUGGUGAAUUUGCGAAUUCUGCUGG [C54U U69G] )
1.06

I have this variant here, GGGGGCCACAGCAGAAGCGUUCACGUCGCGGCCCCUGUCAGGUUCUGGUGAAUCUGCGAAUUCUGGUGU [A42G C66G] , and I need its recorded self-cleavage.
0.622

Consider the variant GGGGGCCACAGCAGAAGCGCUCACGUCGCGGCCCCUAUCAGAUUCUGGUGAAUCUGCGAAUUCUGCUGU [U20C G37A] and give its measured self-cleavage.
0.102

Entry under review: GGGGGCCACAGCAGAAGCGUUCACGUCGCGGCCCCUGUCAGAAUCUGGAGAAUCUGCGAAUUCUGCUGU [U43A U49A] . Reported self-cleavage?
0.944

Name the reported self-cleavage value associated with the variant GGGGGCCACAGCAGAAGCGUUUACGUCGCGGCCCCUGUCAGAUUCUGGUCAAUCUGCGAAUUCUGCUGU [C22U G50C]
0.243

self-cleavage for GGGGGCCACAGCAGAAGCGUUCACGUCGCGGACCCUGUCAGAUUCUGGUGACUCUGCGAAUUCUGCUGU [C32A A52C] ?
0.374

Return reported self-cleavage; argument: GGGGGCCACAGCAGAAGUGAUCACGUCGCGGCCCCUGUCAGAUUCUGGUGAAUCUGCGAAUUCUGCUGU [C18U U20A]
0.108

Reported self-cleavage, variant GGGGGCCACAGCAGAAGCGUUUACGUCGCGGCCCCUGUCAGAUUCUGGUGAAUCUGCGAAUUCUGCAGU [C22U U67A] : ____
0.369

Would you kindly share the measured self-cleavage for GGGAGCCACAGCAGAAGCGUUCACGUCGCGGCCCCUGUCAGAUUCUGGUGAAUCUGCAAAUUCUGCUGU [G4A G58A] ?
0.683

# input variant: GGGGGCCACAGCAGAAGCGUUCACGUCGCGCCCCCUGUCAGAUUCUGGUGAAUCUGGGAAUUCUGCUGU [G31C C57G] ; wanted: its self-cleavage
0.151

Report self-cleavage for GGGGGCCACAGCACAAGCGUUCACGUCGCGGCCCCUGUCAGAUUCUAGUGAAUCUGCGAAUUCUGCUGU [G14C G47A] please.
0.729

Returns the measured self-cleavage for the input variant. Input: GGGGUCCACAGCAGAAGCGUUCACGUCGCGGCCCCUGUCAGAUUCUCGUGAAUCUGCGAAUUCUGCUGU [G5U G47C]
0.277

What value of self-cleavage has been recorded for this entry: GGGGGCCCCAGCAGAAGCGUUCACGUCGCGGCCCCUGUCAAAUUCUGGUGAAUCUGCGAAUUCUGCUGU [A8C G41A]
0.89

Which self-cleavage is listed for GGGGGCCACAGCAGAAGCGUUCACGUCGCGGCCACUGUCAGAUUCUGGAGAAUCUGCGAAUUCUGCUGU [C34A U49A] ?
0.867

Give the measured self-cleavage of GGGGGCCACAGCUGAAGCGUUCACGUCGCGGCCCCUGUCGGAUUCUGGUGAAUCUGCGAAUUCUGCUGU [A13U A40G] .
0.607

If you can, please state the reported self-cleavage value of GGGGGCCGCAGCAGAAGCGUUCACGUCGCGGCCCCUGUCUGAUUCUGGUGAAUCUGCGAAUUCUGCUGU [A8G A40U] .
0.333

For GGGGGCCACAGCAAAAGCGUUCACGUCGCGGCCCCUGUCAGAUUCUGGUCAAUCUGCGAAUUCUGCUGU [G14A G50C] , what is its reported self-cleavage?
0.61

Any idea what self-cleavage was measured for GGGGGCCACAGCUGAAGCGUUCACGUCGCGGCCCCUGUCAGAUUCUGGUGAAUCUGCGAAUUCUGCAGU [A13U U67A] ?
0.629

Using the record for GGGCGCCACAGCAGAAGCGUUCAAGUCGCGGCCCCUGUCAGAUUCUGGUGAAUCUGCGAAUUCUGCUGU [G4C C24A] , report its self-cleavage.
0.167

Can you share its self-cleavage? I mean this variant: GGGGGCUACAGCAGAAGCGUUCACGUCGCGGCCACUGUCAGAUUCUGGUGAAUCUGCGAAUUCUGCUGU [C7U C34A]
0.521

For the variant GGAGGCCACAGCAGAAGCGUUCACUUCGCGGCCCCUGUCAGAUUCUGGUGAAUCUGCGAAUUCUGCUGU [G3A G25U] , what self-cleavage is on record?
0.054

Could you tell me which self-cleavage is on file for GGGGGCCACAGCAGAAGCGUUCCCGUCGCGGCCGCUGUCAGAUUCUGGUGAAUCUGCGAAUUCUGCUGU [A23C C34G] ?
0.36
